Tested on: WRN [UniPro: Q14191 (WRN_HUMAN), N500-C946] (Homo sapiens (Human), UniProt Q14191)
Sequence (Q14191 500-946): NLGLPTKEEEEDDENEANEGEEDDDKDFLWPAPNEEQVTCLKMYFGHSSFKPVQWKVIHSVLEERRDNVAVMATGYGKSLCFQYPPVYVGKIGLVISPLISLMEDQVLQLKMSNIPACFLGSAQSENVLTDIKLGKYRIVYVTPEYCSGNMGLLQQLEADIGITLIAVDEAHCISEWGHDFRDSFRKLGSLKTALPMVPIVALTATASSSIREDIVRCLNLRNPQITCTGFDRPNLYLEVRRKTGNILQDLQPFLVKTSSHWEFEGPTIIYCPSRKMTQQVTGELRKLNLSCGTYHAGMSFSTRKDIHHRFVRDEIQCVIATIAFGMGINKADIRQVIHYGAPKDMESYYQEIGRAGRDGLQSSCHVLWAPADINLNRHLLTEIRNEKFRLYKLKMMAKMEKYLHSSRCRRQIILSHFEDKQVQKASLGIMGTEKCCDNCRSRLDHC
Experimental details: WRN ATPase assay (ADP-Glo)
Type: biochemical
Condition: WRN enzymatic activity assay
Quantity name: IC50

Example compounds with recorded IC50:
Prompt: For the compound CCc1c(N2CCN(C(=O)CNC(=O)c3cc(Cl)ccc3Cl)CC2)c(=O)n2nc(C3=CCOCC3)nc2n1CC(=O)Nc1ccc(C(F)(F)F)cc1Cl , what IC50 is on record?
Completion: < 100 nM

Prompt: // returns reported IC50 for input CCc1c(N2CCN(c3noc4cccnc34)CC2)c(=O)n2nc(C3=CCOCC3)nc2n1CC(=O)Nc1ccc(C(F)(F)F)cc1Cl
Completion: > 1000 nM

Prompt: I am curious: what IC50 value has been reported for CCc1c(N2CCN(C(=O)CNC(=O)c3ccc(F)c(O)c3)CC2)c(=O)n2nc(C3=CCOCC3)nc2n1CC(=O)Nc1ccc(C(F)(F)F)cc1Cl ?
Completion: < 100 nM

Prompt: // lookup IC50 for CCc1c(N2CCN(C(=O)c3cnn4cccc4c3O)CC2)c(=O)n2nc(C3=CCOCC3)nc2n1CC(=O)Nc1sc(C)cc1Br
Completion: 100 to 1000 nM

Prompt: IC50 for CCc1c(N2CCN(C(=O)c3nnc(C)[nH]3)CC2)c(=O)n2nc(C3=CCOCC3)nc2n1CC(=O)Nc1ccc(C(F)(F)F)cc1F ?
Completion: 100 to 1000 nM

Prompt: Need IC50 of CCc1c(N2CCN(C(=O)c3c(OC)cn[nH]c3=O)CC2)c(=O)n2nc(C3=CCOCC3)nc2n1CC(=O)Nc1ccc(C(F)(F)F)cc1Cl , thanks.
Completion: 100 to 1000 nM

***
Prompt: Would you kindly share the measured IC50 for CCc1c(N2CCN(C(=O)CNC(=O)N(C)C)CC2)c(=O)n2nc(C3=CCOCC3)nc2n1CC(=O)Nc1ccc(C(F)(F)F)cc1Cl ?
Completion: 100 to 1000 nM

Prompt: Query: IC50; subject: CCc1c(N2CCN(C(=O)CNC(=O)c3ccno3)CC2)c(=O)n2nc(C3=CCOCC3)nc2n1CC(=O)Nc1ccc(C(F)(F)F)cc1F
Completion: < 100 nM

Prompt: What value of measured IC50 is listed for CCc1c(N2CCN(C(=O)CNC(=O)c3cccs3)CC2)c(=O)n2nc(C3=CCOCC3)nc2n1CC(=O)Nc1ccc(C(F)(F)F)cc1Cl ?
Completion: < 100 nM

Prompt: Form field: reported IC50 of CCc1c(N2CCN(C(=O)C(=O)NC)CC2)c(=O)n2nc(C3=CCOCC3)nc2n1CC(=O)Nc1ccc(C(F)(F)F)cc1Cl
Completion: 100 to 1000 nM

Prompt: Item CCc1c(N2CCN(C(=O)c3[nH]cnc3C(F)(F)F)CC2)c(=O)n2nc(C3=CCOCC3)nc2n1CC(=O)Nc1ccc(C(F)(F)F)cc1Cl has what recorded IC50?
Completion: 100 to 1000 nM

Prompt: Query (compound): CCc1c(N2CCN(C(=O)CNC(=O)c3ccccc3)CC2)c(=O)n2nc(N3CC4COCC4C3)nc2n1CC(=O)Nc1ccc(C(F)(F)F)cc1Cl (stereo not drawn) ; field requested: IC50
Completion: < 100 nM

Reference source: patent US20260015358A1
